test system: Botulinum neurotoxin mosaic BoNT/DC (Clostridium botulinum)
assay text: KinExA, IgG
assay readout: pKd
Scale note: pKd = -log10(concentration in M).

// pKd lookup, key: 4C10.22 IgG (antibody, V domains shown) VH: QVQLVQSGGGVVQPGRSLRLSCGASGFKFSGFDMHWVRQAPGKGLEWVARISHDGSMADYADSLRGRFTISRDNSKNTLYLQMNSLRVEDTALYYCAKDPWRSGSYPAFEIWGQGTMVTVSS VL: EIVLTQSPSFLSAFIGDRITITCRASQGISNRLAWYQQKPGKAPNLLIYPASTLQSGVPSRFSGSGSGTDFTLTISSLQPEDFATYYCQQANSFPLTFGGGTKVEIKR
10.22

Further, for 4C10.18 IgG (antibody, V domains shown) VH: QVQLVQSGGGVAQPGRSLRLSCGASRFTFSGFDMHWVRQAPGKGLEWVARISHDGSMADYADSLRGRFTISRDNSKNTLYLQMNSLRVEDTALYYCAKDRWRSGSYPAFEIWGQGTMVTVSS VL: EIVLTQSPSFLSAFVGDRITITCRASQGIGNRLAWYQQKPGKAPNLLIHPASTLQSGVPSRFSGSGSGTDFTLTISSLQPEDFATYYCQQAHRFPLTFGGGTKVEIKR ?
9.96

Further, for 4C10.15 IgG (antibody, V domains shown) VH: QVQLVQSGGGVVQPGRSLRLSCGASRFTFSGFDMHWVRQAPGKGLEWVARISHDGSMADYADSLRGRFTISRDNSKNTLYLQMNSLRVEDTALYYCAKDRWRSGSYPAFEIWGQGTMVTVSS VL: EIVLTQSPSFLSAFVGDRITITCRASKGIGNRLAWYQQKPGKAPNLLIHPASTLQSGVPSRFSGSGSGTDFTLTISSLQPEDFATYYCQQANSFPLTFGGGTKVEIKR ?
9.95

Further, for 4C10.23 IgG (antibody, V domains shown) VH: QVQLVQSGGGVVQPGRSLRLSCGASGFKFSGFDMHWVRQAPGKGLEWVARISHDGSMADYADSLRGRFTISRDNSKNTLYLQMNSLRVEDTALYYCAKDRWRSGSYPAFEIWGQGTMVTVSS VL: EIVLTQSPSFLSAFVGDRITITCRASKGIGNRLAWYQQKPGKAPNLLIHPASTLQSGVPSRFSGSGSGTDFTLTISSLQPEDFATYYCQQANSFPLTFGGGTKVEIKR ?
10.04

---
// pKd lookup, key: 4C10.5 IgG (antibody, V domains shown) VH: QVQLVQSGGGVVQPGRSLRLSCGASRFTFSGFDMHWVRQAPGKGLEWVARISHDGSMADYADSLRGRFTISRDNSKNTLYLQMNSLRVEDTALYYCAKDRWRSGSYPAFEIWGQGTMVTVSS VL: EIVLTQSPSFLSAFVGDRITITCRASQGISNRLAWYQQKPGKAPNLLIHPASTLQSGVPSRFSGSGSGTDFTLTISSLQPEDFATYYCQQANSFPLTFGGGTKVEIKR
9.01

Origin of the recorded values: patent US20190256584A1
